Test system: BT-549
Conditions: read-out: LC50; BT-549, Breast, 48 h
Endpoint: CC50

• CC(=O)C=CSc1nc(N)nc2nc[nH]c12 [trans-AVTG, 6-(2-acetylvinylthio) guanine] = 43.1 µM

====

Tested on: MALME-3M
Details: read-out: LC50, Melanoma, 48 h
Endpoint: CC50

• CC(=O)C=CSc1nc(N)nc2nc[nH]c12 [trans-AVTG, 6-(2-acetylvinylthio) guanine] = 29.3 µM

====

System: K-562
Details: read-out: LC50; K-562, Leukemia, 48 h
Endpoint: CC50

• CC(=O)C=CSc1nc(N)nc2nc[nH]c12 [trans-AVTG, 6-(2-acetylvinylthio) guanine] = > 100 µM
